test: chemical genetic growth profiling, strain panel (AID 1159580);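 note: tested at 20 µM; growth read once vehicle control cultures reached saturation at 30 °C; 1 = growth at the plate median or of vehicle wells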; conditions: S. cerevisiae deletion strains, growth OD, locus YOR106W, strain vam3, stronger effect = lower value
Hit rate of the full screen: of about 5,500 compounds, about 2,000 (36%) were called active. Roughly 18% stayed inconclusive and do not appear here. The list shows a part of the results. Where a SMILES comes first, the peptide text is derived from it.
This section presents compounds with their documented normalized growth values.
Answer with the value's number alone.

Example entries and their recorded answers appear below.
compound	normalized growth
CC(=O)Oc1ccc2c(c1)CCC1C2CC[C@]2(C)C(=O)CCC12 (some centres undefined)	0.968
Clc1ccc(C(c2ccccc2Cl)C(Cl)Cl)cc1 (centres undefined)	0.888
CC12CCC3C(=CCc4cc(O)ccc43)C1CCC2=O (centres undefined)	0.902

If you can, please state the reported normalized growth value of `COc1c(C)c2c(c(O)c1C/C=C(\C)CCC(=O)O)C(=O)OC2` . 0.442

Also C[C@]12CCC3c4ccc(OC(=O)c5ccccc5)cc4CCC3C1CCC2=O (some centres undefined) ? 1.04

Also check `CN1CCC[C@@H]1CCO[C@](C)(c1ccccc1)c1ccc(Cl)cc1` 0.914

Same lookup for CC(=O)N[C@@H](CC(=O)O)C(=O)N[C@@H](CCC(=O)O)C(=O)O (Ac-Asp-Glu-OH) , please. 1.02

Likewise for CC(=O)Oc1c2c(c(CC=C(C)C)c3c1C(=O)C1=C[C@@H]4CC5C(C)(C)OC(C/C=C(\C)C(=O)O)(C4=O)[C@@]15O3)OC(C)(CCC=C(C)C)C=C2 (some centres undefined) ? 0.931

Do the same for COC(=O)/C(C)=C\CC12OC(C)(C)C3CC(C=C4C(=O)c5c(OC)c6c(c(CC=C(C)C)c5OC431)OC(C)(CCC=C(C)C)C=C6)C2=O (centres undefined) please 1

###

assay: chemical genetic growth profiling, strain panel (AID 1159580); conditions: S. cerevisiae deletion strains, growth OD, locus YEL061C, strain CIN8 (second series), stronger effect = lower value
In all, about 5,500 compounds went through this assay and about 2,000 (36%) were called active. Inconclusive results (about 18%) are left out. Some of the results follow.
// reported normalized growth per item
Form field (numeric): enter value without unit.

Previously resolved entries follow.
molecule	normalized growth
CC(=O)Oc1c2c(c3c(c1CC=C(C)C)O[C@]14C(=C[C@@H]5CC1C(C)(C)OC4(C/C=C(\C)C(=O)O)C5=O)C3=O)OC(C)(CCC=C(C)C)C=C2 (stereo not given in full)	0.984
O=C1CCCN1CC#CCN1CCCC1	1.02
O=c1[nH]c(=O)n(C2C[C@H](O)[C@@H](CO)O2)cc1C(F)(F)F (stereo not given in full)	0.952
CC(=O)OC/C=C(\C)CC/C=C(\C)CC/C=C(\C)CC/C=C(\C)CC/C=C(\C)CC/C=C(\C)CC/C=C(\C)CC/C=C(\C)CCC=C(C)C	0.973

Value lookup for normalized growth; key = `COP(=S)(OC)Oc1ccc([N+](=O)[O-])cc1` 1

###

test: chemical genetic growth profiling, strain panel (AID 1159580); settings: S. cerevisiae deletion strains, growth OD, locus YOL006C, strain TOP1, stronger effect = lower value
Out of some 5,500 compounds screened, about 2,000 (36%) were called active. Not shown: some 18% with an inconclusive outcome. The list shows a part of the results.
For each record, check the reported normalized growth: if it is below 1 write t, else write f.

A selection of reference data follows.
molecule	class
FC(F)(F)c1cccc(N2CCNCC2)c1	f
CC(=O)OCC(=O)[C@@]1(O)CCC2C3CCC4=CC(=O)C=CC4(C)C3[C@@H](O)C[C@@]21C (stereo not given in full)	f

Continue with the next molecule.
Determine if `O=S(=O)(NCc1ccc2c(c1)OCO2)c1ccc(F)c(Cl)c1` shows normalized growth strictly lower than 1. t

###

test: chemical genetic growth profiling, strain panel (AID 1159580); conditions: S. cerevisiae deletion strains, growth OD, locus YLR085C, strain ARP6
Out of some 5,500 compounds screened, about 2,000 (36%) were called active. Another 18% or so got no clear call; they are omitted. Rule as the data show it: active = normalized growth mostly below about 0.91 (no sharp cut-off); inconclusive = no clear call, values can overlap the other calls; inactive = mostly above about 0.92. The list shows a part of the results.
Answer with one of the outcomes active, inactive

>>> df
                                   compound     class
0  Cc1nn(-c2ccccc2)nc1-c1nnc(-c2ccc(Cl)cc2)o1  inactive
1  O=C1c2ccccc2C2(c3ccccc3)NCCN12 (configuration not stated)  inactive
2                    OCc1nccn1Cc1ccc(Cl)cc1  inactive
3             c1ccc(-c2csc(-c3cccnc3)n2)cc1    active
4  O=S(=O)(NCCc1ccncc1)c1cc(C(F)(F)F)cc(C(F)(F)F)c1  inactive

Now turn to the next compound.
I would be grateful if you could indicate the recorded call for `Cc1nn(Cc2ccccc2Cl)c(=N)s1` . inactive

###

assay: chemical genetic growth profiling, strain panel (AID 1159580); conditions: S. cerevisiae deletion strains, growth OD, locus YNL248C, strain rpa49
Hit rate of the full screen: of about 5,500 compounds, about 2,000 (36%) were called active. Another 18% or so got no clear call; they are omitted. Rule as the data show it: active = normalized growth mostly below about 0.91 (no sharp cut-off); inconclusive = no clear call, values can overlap the other calls; inactive = mostly above about 0.92. The list shows a part of the results. Where a SMILES comes first, the peptide text is derived from it.
// one of Y = active, N = inactive, no free text

>>> print(df.to_string())
                                   molecule  class
0  CC(=O)N[C@@H](CC(=O)O)C(=O)N[C@@H](CCC(=O)O)C(=O)O (Ac-Asp-Glu-OH)      N
1                      O=NN(CCCl)C(=O)NCCCl      Y
2  C[C@]12C=CC(=O)C=C1CCC1C2[C@@H](O)C[C@@]2(C)C1CC[C@]2(O)C(=O)CO (stereo partly specified)      N
3  CC1CCC(NC(=O)N(CCCl)N=O)CC1 (stereo unspecified)      Y
4             CC(=O)N[C@@H](CCC(=O)O)C(=O)O      N

Could you now consider this next molecule?
Test call, this molecule: Cc1cccc(C)c1NC(=O)C1CCCCN1C (stereo unspecified) N

###

assay: chemical genetic growth profiling, strain panel (AID 1159580);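 note: tested at 20 µM; growth read once vehicle control cultures reached saturation at 30 °C; 1 = growth at the plate median or of vehicle wells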; settings: S. cerevisiae deletion strains, growth OD, locus YEL003W, strain gim4, stronger effect = lower value
In all, about 5,500 compounds went through this assay and about 2,000 (36%) were called active. Not shown: some 18% with an inconclusive outcome. Some of the results follow.
Recorded normalized growth by entry
// no unit string in output, number only

molecule	result
COC1C=CC23c4cc5c(cc4CN(CC2O)[C@@H]3C1)OCO5 (stereo not given in full)	0.972
COC(=O)[C@@H]1OC(=O)C2OC23[C@@]1(C)CCC1[C@]2(C)C(C[C@@H](O)[C@]13C)C(C)(C)[C@H](OC(C)=O)C[C@@H]2OC(C)=O (stereo not given in full)	1
COc1ccnc(CS(=O)c2nc3ccc(OC(F)F)cc3[nH]2)c1OC (stereo not given)	1.02
C1N2CN3CN1CN(C2)C3	1

Turning to the following molecule.
# input molecule: COc1ccc2nc(S(=O)Cc3ncc(C)c(OC)c3C)[nH]c2c1 (stereo not given) ; wanted: its normalized growth 1.01

###

test: chemical genetic growth profiling, strain panel (AID 1159580);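 note: tested at 20 µM; growth read once vehicle control cultures reached saturation at 30 °C; 1 = growth at the plate median or of vehicle wells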; conditions: S. cerevisiae deletion strains, growth OD, locus YFR010W, strain ubp6
The whole screen tested about 5,500 compounds, of which about 2,000 (36%) were called active. Another 18% or so got no clear call; they are omitted. No stated cut-off is given here; in the data, active means normalized growth mostly below about 0.91 (no sharp cut-off); inconclusive means no clear call, values can overlap the other calls; inactive means mostly above about 0.92. This is one part of the list.
# output must be one of active, inactive

                                   molecule     class
0  C[C@H]1C[C@@H](O)[C@]2(O)[C@@]13CC(=O)OC[C@@]2(C)[C@](C)(O)C(=O)C3  inactive

Test call for this molecule, please: `CC(=O)OC/C=C(\C)CC/C=C(\C)CC/C=C(\C)CC/C=C(\C)CC/C=C(\C)CC/C=C(\C)CC/C=C(\C)CC/C=C(\C)CCC=C(C)C` inactive

Next up: `Cc1nnc(NS(=O)(=O)c2ccc(N)cc2)s1` inactive

Please do the same for C=NC(C(=O)NC1C(=O)N2C1SC(C)(C)C2C(=O)O)c1ccccc1 (stereo unspecified) as well. inactive

Also `Oc1c(Cl)cc(Cl)c(Cl)c1Cc1c(O)c(Cl)cc(Cl)c1Cl` ? active

Same thing, different molecule: `CC(=O)O[C@]1(C)CC[C@@]23CC1C(C)(C)[C@@H]2CC[C@H]3C` inactive

###

assay: chemical genetic growth profiling, strain panel (AID 1159580);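 note: tested at 20 µM; growth read once vehicle control cultures reached saturation at 30 °C; 1 = growth at the plate median or of vehicle wells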; conditions: S. cerevisiae deletion strains, growth OD, locus YKR001C, strain vps1
The campaign covered roughly 5,500 compounds. About 2,000 (36%) were called active. Roughly 18% stayed inconclusive and do not appear here. No stated cut-off is given here; in the data, active means normalized growth mostly below about 0.91 (no sharp cut-off); inconclusive means no clear call, values can overlap the other calls; inactive means mostly above about 0.92. The list shows a part of the results.
Your reply should match one of these outcome classes. active, inactive

Answered cases to consult:
compound	class
CC(=O)O[C@]1(C)CC[C@@]23CC1C(C)(C)[C@@H]2CC[C@H]3C	inactive
c1ccc2c(CC3=NCCN3)cccc2c1	inactive
COc1cc(OC)c2c(=O)cc(-c3ccccc3)oc2c1	active
CC(=O)O[C@H]1C[C@@]2(C)[C@@H](C[C@@H](O)C3[C@]2(C)CC[C@H]2[C@H](C)[C@H](O)CC[C@]32C)/C1=C(/CCC=C(C)C)C(=O)O (some centres undefined)	inactive
COP(=S)(OC)Oc1ccc([N+](=O)[O-])cc1	inactive

Which outcome was assigned to Clc1ccc(COC(Cn2ccnc2)c2ccc(Cl)cc2Cl)cc1 (centres undefined) in this test? active

Now try `NCCCNCCSP(=O)(O)O` . inactive

Would you mind doing Clc1ccc(COC(Cn2ccnc2)c2ccc(Cl)cc2Cl)c(Cl)c1 (centres undefined) as well? active

Next record, please: `Cc1oncc1C(=O)Nc1ccc(C(F)(F)F)cc1` inactive

Another compound: Clc1ccc(CSC(Cn2ccnc2)c2ccc(Cl)cc2Cl)cc1 (centres undefined) active

Also, `C1N2CN3CN1CN(C2)C3` please. inactive

Now the compound CC(=O)O[C@@H]1CC2C(C)(C)[C@H](O)CC[C@]2(C)C2CC[C@@]3(C)[C@H](c4ccoc4)OC(=O)C4OC43[C@@]21C (some centres undefined) inactive

Please give the result for `OC[C@H]1O[C@@H](n2cnc3c(NCc4ccco4)ncnc32)[C@H](O)[C@@H]1O` too. inactive

Then CC(=O)O[C@@H]1CC2C(C)(C)[C@@H](O)CC[C@]2(C)C2CC[C@@]3(C)[C@H](c4ccoc4)OC(=O)[C@H]4O[C@]43[C@@]21C (some centres undefined) ? inactive

Thanks! And CC(=O)OC1CC(OC(C)=O)C2(C)C(CC(OC(C)=O)C3(C)C2CCC2(C)C(c4ccoc4)OC(=O)C4OC423)C1(C)C (centres undefined) ? inactive

Similarly, CC(=O)O[C@H]1CC[C@@]2(C)C(C[C@@H](OC(C)=O)[C@]3(C)C2CC[C@@]2(C)[C@H](c4ccoc4)OC(=O)[C@H]4O[C@]423)C1(C)C (some centres undefined) ? inactive

Could you do the same for CC(=O)O[C@@H]1CC2C(C)(C)[C@H](O)CC[C@]2(C)C2CC[C@@]3(C)[C@H](c4ccoc4)OC(=O)[C@H]4O[C@]43[C@@]21C (some centres undefined) , please? inactive

Now this one: Cc1cccc(C)c1NC(=O)C1CCCCN1C (centres undefined) inactive

Also `Fc1ccc([C@@H]2CCNC[C@H]2COc2ccc3c(c2)OCO3)cc1` , if possible. inactive
